# measurementDescription: Plasma pharmacokinetic study
# Assay type: in vivo, CD-1 mice
# conditionDescription: male, CD-1, mouse, plasma; IP 20 mg/kg, 0.083 hr
valueKind: concentration at 0.083 h (ng/mL)

CC(C)=CCOc1cc(OCCCNC(=N)N)cc2oc3cc(OCCCNC(=N)N)ccc3c(=O)c12: 17500

---

# measurementDescription: Plasma pharmacokinetic study
# Assay type: in vivo, CD-1 mice
# conditionDescription: male, CD-1, mouse, plasma; IP 20 mg/kg, 4 hr
valueKind: concentration at 4 h (ng/mL)

CC(C)=CCOc1cc(OCCCNC(=N)N)cc2oc3cc(OCCCNC(=N)N)ccc3c(=O)c12 [XT17]: 452
